Values were extracted from patent US20190135908A1.

# assay.system: T1, Human GDF15 native: naturally produced human GDF15 purchased from Peprotech (human, UniProt Q99988 195-308)
# T1 construct: Bought protein
# T1 sequence: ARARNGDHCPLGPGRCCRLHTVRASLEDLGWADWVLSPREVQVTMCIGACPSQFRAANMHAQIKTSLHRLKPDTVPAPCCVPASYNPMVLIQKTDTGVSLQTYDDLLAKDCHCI
# method.notes: Biacore SPR, IgG captured via anti-human Fc, GDF15 in flow
Listing of recorded koff by entry.
measure: koff

binder="ABGDF15-A (antibody, human IgG1, kappa, V domains shown, captured through anti-human Fc in the Biacore assay) VH: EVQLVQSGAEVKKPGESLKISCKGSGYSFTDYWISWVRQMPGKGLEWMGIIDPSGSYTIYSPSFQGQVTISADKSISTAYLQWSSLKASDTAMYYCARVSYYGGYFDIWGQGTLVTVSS VL: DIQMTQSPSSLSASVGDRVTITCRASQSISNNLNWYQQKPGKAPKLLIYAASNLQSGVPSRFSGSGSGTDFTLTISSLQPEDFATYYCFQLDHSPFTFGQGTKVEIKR" value_reported="0.000374 s⁻¹"
binder="ABGDF15-C (antibody, human IgG1, lambda, V domains shown, captured through anti-human Fc in the Biacore assay) VH: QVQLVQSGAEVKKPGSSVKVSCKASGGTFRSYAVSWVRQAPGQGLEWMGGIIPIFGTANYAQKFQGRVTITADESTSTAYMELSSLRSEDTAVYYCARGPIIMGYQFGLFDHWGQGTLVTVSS VL: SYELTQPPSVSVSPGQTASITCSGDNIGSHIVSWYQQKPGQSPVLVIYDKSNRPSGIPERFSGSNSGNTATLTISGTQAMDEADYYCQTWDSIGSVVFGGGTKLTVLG" value_reported="0.000388 s⁻¹"
binder="ABGDF15-B (antibody, human IgG1, lambda, V domains shown, captured through anti-human Fc in the Biacore assay) VH: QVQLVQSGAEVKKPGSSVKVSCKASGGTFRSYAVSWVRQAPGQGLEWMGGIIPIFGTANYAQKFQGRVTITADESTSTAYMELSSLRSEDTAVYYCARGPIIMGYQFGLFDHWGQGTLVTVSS VL: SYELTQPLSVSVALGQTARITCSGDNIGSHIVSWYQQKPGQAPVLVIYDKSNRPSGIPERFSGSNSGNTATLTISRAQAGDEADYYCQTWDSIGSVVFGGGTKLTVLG" value_reported="0.000389 s⁻¹"
binder="ABGDF15-F (antibody, human IgG1, lambda, V domains shown, captured through anti-human Fc in the Biacore assay) VH: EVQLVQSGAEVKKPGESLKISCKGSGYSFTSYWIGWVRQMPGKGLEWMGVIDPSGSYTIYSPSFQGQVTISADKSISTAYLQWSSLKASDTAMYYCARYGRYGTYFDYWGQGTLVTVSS VL: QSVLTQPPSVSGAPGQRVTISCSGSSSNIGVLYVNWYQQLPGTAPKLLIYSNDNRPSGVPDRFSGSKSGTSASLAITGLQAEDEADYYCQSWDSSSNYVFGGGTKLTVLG" value_reported="0.000696 s⁻¹"
